# experimental_system: DNA repair nuclease/redox regulator APEX1 (Homo sapiens)
# test_name: Inhibition of human recombinant APE1 after 15 mins by fluorescence based HTS assay
Assignment: determine reported IC50 for the given molecules.
Numbers only, in µM.

For orientation, consider the following solved cases.
# molecule, uom, IC50
data = [
    ("CC(=O)Nc1sc2c(c1-c1nc3ccccc3s1)CN(C(C)C)C2", "µM", 3.1),
    ("CC(=O)Nc1sc2c(c1-c1nc3ccccc3s1)CCNC2", "µM", 2.9),
]

Now examine the next entry.
Task: Query (molecule): Cc1nnc(Nc2sc3c(c2-c2nc4ccccc4s2)CCNC3)o1 ; field requested: IC50
Result: 19

* * *

Assignment: determine reported Cmax for the given compounds.
# Test system: Plasma
# test_name: Cmax in CD1 mouse plasma at 30 mg/kg, ip
# Assay type: ADME, organism-based
# Parameters: dose 30 mg/kg, route intraperitoneal
# assay_setup: in vivo

# molecule, experimental_system, result_value
records = [
    ("CC(=O)Nc1sc2c(c1-c1nc3ccccc3s1)CNC2", "Plasma", "36 µM"),
]

Now examine the next entry.
Task: Query (compound): CC(=O)Nc1sc2c(c1-c1nc3ccccc3s1)CCN(C(C)C)C2 ; field requested: Cmax
Result: 16 µM

* * *

# experimental_system: DNA repair nuclease/redox regulator APEX1 (Homo sapiens, UniProt P27695)
# Sequence (P27695 whole entry): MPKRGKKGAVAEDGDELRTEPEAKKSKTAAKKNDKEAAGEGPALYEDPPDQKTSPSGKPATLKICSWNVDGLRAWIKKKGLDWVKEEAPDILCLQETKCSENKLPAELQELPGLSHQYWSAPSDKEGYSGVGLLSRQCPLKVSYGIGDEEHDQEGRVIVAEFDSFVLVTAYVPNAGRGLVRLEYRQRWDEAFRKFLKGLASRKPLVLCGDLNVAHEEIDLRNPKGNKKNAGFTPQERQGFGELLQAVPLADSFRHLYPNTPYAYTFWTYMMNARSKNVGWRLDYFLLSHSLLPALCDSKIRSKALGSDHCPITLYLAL
# test_name: Inhibition of human recombinant APE1 at 57 uM after 15 mins by fluorescence based HTS assay
measurement_label: inhibition (%)
One number for each entry, in %.

For orientation, consider the following solved cases.
# molecule, result_value
rows = [
    ("CC(=O)Nc1sc2c(c1-c1nc3ccccc3s1)CNCC2", 31),
    ("CC(=O)Nc1sc2c(c1-c1nc3ccccc3s1)CCS(=O)(=O)C2", 29),
    ("CC(=O)Nc1sc2c(c1Br)CCNC2", 30),
    ("CC(=O)Nc1sc2c(c1-c1nc3ccccc3s1)CCN(Cc1ccccc1)C2", 41),
    ("CC(=O)Nc1sc2c(c1-c1ccco1)CCNC2", 41),
    ("O=C(Nc1sc2c(c1-c1nc3ccccc3s1)CCNC2)C1CCCC1", 55),
]

Each molecule below has a recorded value; state its inhibition.
1. CC(=O)Nc1cc2c(s1)CNCC2
2. CC(=O)Nc1sc2c(c1-c1cccs1)CCNC2
3. CC(=O)Nc1sc2c(c1-c1ncco1)CCNC2
4. CC(=O)Nc1sc2c(c1-c1nc3ccccc3s1)CCN(C(C)=O)C2
5. CC(=O)Nc1sc2c(c1-c1ccccc1)CCNC2
6. CC(=O)Nc1sc2c(c1C#N)CCN(C(C)C)C2
7. CC(C)N1CCc2c(sc(N)c2-c2nc3ccccc3s2)C1
8. C#CCCC(=O)Nc1sc2c(c1-c1nc3ccccc3s1)CCN(C(C)C)C2

Result:
47
34
45
59
42
31
40
57

* * *

Assignment: determine reported pIC50 for the given compounds.
# experimental_system: DNA repair nuclease/redox regulator APEX1 (Homo sapiens, UniProt P27695)
# test_name: Inhibition of human recombinant APE1 after 15 mins by fluorescence based HTS assay
pIC50: −log10 of the molar value.

Each compound below has a recorded value; state its pIC50.
1. COC(=O)c1sc2c(c1-c1nc3ccccc3s1)CCNC2
2. CC(=O)Nc1sc2c(c1-c1csc3ccccc13)CCNC2
3. O=C(O)c1sc2c(c1-c1nc3ccccc3s1)CCNC2

Result:
1: < 4.24; 2: < 4.24; 3: < 4.24

All values here come from ChEMBL document CHEMBL2057080.
